List of inhibition of the mammalian low km enzyme values.
# STUDY_TARGET: low Km AlDH from rat liver (Rattus norvegicus, UniProt P11884)
# Construct: using a preparation from rat liver containing both Low Km and high Km AlDH; from tissue; host or cells: rat liver preparation
# Sequence (P11884 20-519): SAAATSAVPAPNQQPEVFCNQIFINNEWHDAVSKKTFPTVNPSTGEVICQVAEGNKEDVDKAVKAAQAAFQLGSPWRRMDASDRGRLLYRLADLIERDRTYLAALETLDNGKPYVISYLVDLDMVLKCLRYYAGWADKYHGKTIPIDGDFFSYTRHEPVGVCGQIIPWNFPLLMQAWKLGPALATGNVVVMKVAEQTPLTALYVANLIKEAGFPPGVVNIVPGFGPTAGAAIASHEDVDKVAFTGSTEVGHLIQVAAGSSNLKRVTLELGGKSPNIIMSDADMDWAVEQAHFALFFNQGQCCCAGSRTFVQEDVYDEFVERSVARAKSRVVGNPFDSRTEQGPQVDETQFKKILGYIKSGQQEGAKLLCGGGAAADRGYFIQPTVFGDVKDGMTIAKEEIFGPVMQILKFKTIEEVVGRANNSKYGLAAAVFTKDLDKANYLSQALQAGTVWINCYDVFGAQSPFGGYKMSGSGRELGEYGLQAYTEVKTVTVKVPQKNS
# ASSAY_DETAILS: Inhibition of mammalian mitochondrial (low Km) AlDH in rat liver preparation
# Format: biochemical
# REPORTED_CONDITIONS: Example 3, preliminary results, 2 μM concentration
Numbers only here, please. The scale is %.

// inhibition of the mammalian low km enzyme lookup, compound = Nc1c(O)cccc1C(=O)O [3-hydroxyanthranilic acid] , result: 46

// inhibition of the mammalian low km enzyme lookup, compound = Nc1c(O)cccc1C(=O)CC(N)C(=O)O (centres unmarked) [3-hydroxykynurenine] , result: 65

// inhibition of the mammalian low km enzyme lookup, compound = O=C(O)c1cc(=O)c2ccccc2[nH]1 [kynurenic acid] , result: 30

// inhibition of the mammalian low km enzyme lookup, compound = O=C(O)C(=O)Cc1c[nH]c2ccccc12 [indol-3-ylpyruvic acid] , result: 37

* * *

List of inhibition of activity of the low Km enzyme values.
# STUDY_TARGET: low Km AlDH from rat liver (Rattus norvegicus)
# Construct: using a preparation from rat liver containing both Low Km and high Km AlDH; from tissue; host or cells: rat liver preparation
# ASSAY_DETAILS: Inhibition of mammalian mitochondrial (low Km) AlDH in rat liver preparation
# Format: biochemical
# REPORTED_CONDITIONS: Example 4, rat liver low Km AlDH, 5 μM acetaldehyde, 10 μM concentration
Numbers only here, please. The scale is %.

Reference set, count: 3
O=C(O)c1cc(=O)c2ccccc2[nH]1 | 43
O=C(O)C(=O)Cc1c[nH]c2ccccc12 | 38
Nc1c(O)cccc1C(=O)O [3-hydroxyanthranilic acid] | 54

The record that follows has no inhibition of activity of the low Km enzyme shown yet.
// inhibition of activity of the low Km enzyme lookup, molecule = Nc1c(O)cccc1C(=O)CC(N)C(=O)O (centres unmarked) [3-hydroxykynurenine] , result: 52

* * *

# Test system: AlDH of bacterial sources
# ASSAY_DETAILS: Screening of tryptophan metabolites for inhibition of bacterial AlDH activity in vitro
# Assay type: biochemical
# REPORTED_CONDITIONS: 100 μM concentration, in vitro
VALUE_TYPE: % inhibition of AlDH activity (%)
Numbers only here, please. The scale is %.

// % inhibition of AlDH activity lookup, compound = O=C(O)C(=O)Cc1c[nH]c2ccccc12 [indol-3-ylpyruvic acid] , result: 94

// % inhibition of AlDH activity lookup, compound = O=C(O)c1cc(O)c2cccc(O)c2n1 [xanthurenic acid] , result: 56

// % inhibition of AlDH activity lookup, compound = O=CCc1c[nH]c2ccccc12 [indol-3-ylacetaldehyde] , result: 55

// % inhibition of AlDH activity lookup, compound = Nc1ccccc1C(=O)CC(N)C(=O)O (stereo not drawn) [kynurenine] , result: 24

// % inhibition of AlDH activity lookup, compound = Nc1c(O)cccc1C(=O)CC(N)C(=O)O (stereo not drawn) [3-hydroxykynurenine] , result: 97

// % inhibition of AlDH activity lookup, compound = N[C@@H](Cc1c[nH]c2ccc(O)cc12)C(=O)O [5-hydroxytrytophan] , result: 23

# credit: patent US8003704B2
